Data credit: patent US20140271734A1

- protocolDetails: Toxicokinetics of LUM001 free form, 13-week oral gavage toxicity study in rats
- Assay type: in vivo
- runConditions: male, Charles River CD IGS, rat, plasma, oral; Day 78; 30.0 mg/kg; M
- Protocol: Charles River CD IGS rats were assigned to treatment groups (9sex/toxicokinetic group) and were administered daily doses of 0, 5, 30, 75, and 150 mg/kg (males) or 0, 5, 30, 150, and 500 mg/kg (females). […] All animals were dosed with 10 mL/kg/day based on the most recently determined body weights. […] Plasma samples were stored at approximately −20° C. or lower until analyzed. The concentration of LUM001 free form in plasma were determined using an LCMSMS method. […]
propertyName: Cmax (ng/mL)
Kindly answer with a numeric value in ng/mL, unit omitted.

Task: Recorded Cmax for CCCCC1(CCCC)CS(=O)(=O)c2ccc(N(C)C)cc2[C@@H](c2ccc(OCc3ccc(C[N+]45CCN(CC4)CC5)cc3)cc2)[C@H]1O , please?
Output: 4.75

###

- protocolDetails: Pharmacokinetics of LUM001 after oral gavage in rats
- Assay type: in vivo
- runConditions: both sexes, Sprague Dawley, rat, plasma, 5 mg/kg, single oral gavage 5 mg/kg free form, fed
propertyName: Tmax (min)
Answer format: numeric, min implied, no suffix.

Task: Entry under review: CCCCC1(CCCC)CS(=O)(=O)c2ccc(N(C)C)cc2[C@@H](c2ccc(OCc3ccc(C[N+]45CCN(CC4)CC5)cc3)cc2)[C@H]1O [LUM001] . Reported Tmax?
Output: 15

###

- protocolDetails: Toxicokinetics of LUM001 free form, 13-week oral capsule toxicity study in dogs
- Type: in vivo, Beagle dogs
- runConditions: male, Beagle, dog, plasma, oral, 100 mg/kg, Day 91; 100 mg/kg; M
propertyName: Tmax (h)
Hi! Could you send only the number? It should be in h, unit omitted.

Task: Recorded Tmax for CCCCC1(CCCC)CS(=O)(=O)c2ccc(N(C)C)cc2[C@@H](c2ccc(OCc3ccc(C[N+]45CCN(CC4)CC5)cc3)cc2)[C@H]1O , please?
Output: 2.25

###

- protocolDetails: Pharmacokinetics of LUM001 after oral solution and capsule in dogs
- Format: in vivo, Beagle dogs
- runConditions: female, Beagle, dog, plasma; oral solution 1 mg/kg free form, fasted; read-out: BA (bioavailability)
propertyName: bioavailability

Task: # input compound: CCCCC1(CCCC)CS(=O)(=O)c2ccc(N(C)C)cc2[C@@H](c2ccc(OCc3ccc(C[N+]45CCN(CC4)CC5)cc3)cc2)[C@H]1O ; wanted: its bioavailability
Output: < 0.1%

###

- protocolDetails: Toxicokinetics of LUM001 free form, 13-week oral gavage toxicity study in rats
- Format: in vivo
- runConditions: female, Charles River CD IGS, rat, plasma, oral, 150 mg/kg, Day 78; 150 mg/kg; F; read-out: AUC(0-24 h)
propertyName: AUC(0-t)

Task: Suppose we examine the molecule CCCCC1(CCCC)CS(=O)(=O)c2ccc(N(C)C)cc2[C@@H](c2ccc(OCc3ccc(C[N+]45CCN(CC4)CC5)cc3)cc2)[C@H]1O [LUM001] ; what AUC(0-t) value has been reported?
Output: 124 ng·h/mL

###

- protocolDetails: Toxicokinetics of LUM001 free form, 13-week oral gavage toxicity study in rats
- Assay type: in vivo
- runConditions: male, CD IGS, rat, plasma, oral; Day 1; 150 mg/kg; M
propertyName: Tmax (h)
Numbers only here, please. The scale is h.

Task: Please look up its Tmax: CCCCC1(CCCC)CS(=O)(=O)c2ccc(N(C)C)cc2[C@@H](c2ccc(OCc3ccc(C[N+]45CCN(CC4)CC5)cc3)cc2)[C@H]1O [LUM001]
Output: 3
